Measured values drawn from PubChem BioAssay (Tox21) for this set.

protocol-text: qHTS assay to identify small molecule antagonists of the thyroid receptor (TR) signaling pathway (AID 743065); further: nearly all actives have a fitted effect of over 55% in size
experimental-setup: GH3.TRE-Luc, T3-stimulated luciferase inhibition, 23.5 h; series mostly up to 70.3 µM
Inconclusive results are not listed. Active and inactive are the calls of the source. The call rests on the fitted dose curve; in most records, active means well fitted inhibition curve with a large enough effect in the repeat runs; inconclusive means weak or mixed curves; inactive means no such curve, though single readings can be large or run the other way.
Labels: active, inactive

| molecule | label-class |
| --- | --- |
| c1ccc2c(c1)sc1ccccc12 | inactive |
| Cc1cccc(C)c1NC1=NCCCS1 | inactive |
| CC(C)OC(=O)Cc1ccccc1 | inactive |
| C[C@]12C=CC3=C4CCC(=O)C=C4CC[C@H]3[C@@H]1CC[C@@H]2O | active |
| CCOC(=O)c1cncn1C(C)c1ccccc1 (centres undefined) | inactive |
| OCC1CO1 (centres undefined) | inactive |
| CCOP(=S)(S)OCC | inactive |
| CC(Cc1ccccc1)NCc1ccccc1Cl (centres undefined) | inactive |
| O=C=NC1CCCCC1 | inactive |
| Nc1cccc2ccccc12 | inactive |
| C[N+](C)(C)CC1CO1 (centres undefined) | inactive |
| CCCC[P+](CC)(CCCC)CCCC (tested in a mixture with another compound) | inactive |
| C[N+]1(CCC(C(N)=O)(c2ccccc2)c2ccccc2)CCCCC1 | inactive |
| CCOP(=S)(OCC)SCSc1cc(Cl)ccc1Cl | inactive |
| CCCCCBr | inactive |
| O=C(O)C(Cl)(Cl)Br | inactive |
| Cc1nc2ccccc2c(=O)n1-c1ccccc1Cl | inactive |
| NP(N)(=O)NC(=O)c1ccc(F)cc1 | inactive |
| CCOC(=O)C1OC1(C)c1ccccc1 (centres undefined) | inactive |
| C=CCOC(=O)C(C)(C)OC(=O)c1cc(-n2c(=O)cc(C(F)(F)F)n(C)c2=O)ccc1Cl | inactive |
| Nc1c(Br)cc(Br)c2c1C(=O)c1ccccc1C2=O | inactive |
| CC(=O)OC(c1ccccc1)C(Cl)(Cl)Cl (centres undefined) | inactive |
| C=CCOCC1CO1 (centres undefined) | inactive |
| CCCC1CCCCN1 (centres undefined) | inactive |
| NC(=O)CF | inactive |
| C=CC(C)(CCC=C(C)C)OC(=O)c1ccccc1N (centres undefined) | inactive |
| CON(C)C(=O)Nc1ccc(Cl)cc1 | inactive |
| CC(C)c1ccc(NC(=O)N(C)C)cc1 | inactive |
| CC(Cl)C(=O)O (centres undefined) | inactive |

----------
study-target: Cytochrome P450 2C19 (Homo sapiens) (UniProt P33261)
Sequence (P33261 whole entry, looked up): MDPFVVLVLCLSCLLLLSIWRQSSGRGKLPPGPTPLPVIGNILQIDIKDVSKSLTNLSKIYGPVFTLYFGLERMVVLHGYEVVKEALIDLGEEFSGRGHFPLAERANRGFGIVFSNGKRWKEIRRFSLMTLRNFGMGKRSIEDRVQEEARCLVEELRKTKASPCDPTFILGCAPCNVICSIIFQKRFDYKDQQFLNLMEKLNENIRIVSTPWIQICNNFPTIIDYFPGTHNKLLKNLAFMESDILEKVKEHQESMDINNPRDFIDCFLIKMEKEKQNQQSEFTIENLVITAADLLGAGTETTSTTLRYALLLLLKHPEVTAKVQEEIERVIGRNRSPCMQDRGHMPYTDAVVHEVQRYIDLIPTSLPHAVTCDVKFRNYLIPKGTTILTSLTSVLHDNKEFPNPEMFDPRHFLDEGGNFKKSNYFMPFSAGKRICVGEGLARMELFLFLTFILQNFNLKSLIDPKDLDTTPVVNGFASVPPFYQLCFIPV
protocol-text: Cytochrome P450 Family 2 Subfamily C Member 19 (CYP2C19) small molecule antagonists: luciferase reporter qHTS assay (AID 1671197); further: nearly all actives have a fitted effect of over 65% in size
experimental-setup: P450-Glo CYP2C19 enzyme, luciferin luminescence, 1 h; series mostly up to 115 µM
Records with an inconclusive call do not appear. Calls of active or inactive are those of the source. Calls come from the whole dose curve; as a rule, active = well fitted inhibition curve with a large enough effect in the repeat runs; inconclusive = weak or mixed curves; inactive = no such curve, though single readings can be large or run the other way.
Possible outcomes: true (1) (active), false (0) (inactive)

| compound | label-class |
| --- | --- |
| Clc1ccccc1 | false (0) |
| C=CCc1ccccc1O | false (0) |
| CCOP(=S)(OCC)Oc1ccc(S(C)=O)cc1 (stereo unspecified) | true (1) |
| COc1ccccc1N1CCNCC1 | false (0) |
| O=C(N/N=C/c1ccc([N+](=O)[O-])o1)c1cc([N+](=O)[O-])cc([N+](=O)[O-])c1O | false (0) |
| O=S(=O)(c1ccccc1)c1ccccc1 | true (1) |
